assayMethodText: NCI Yeast Anticancer Drug Screen. Data for the bub3 strain (AID 167)
assayConditions: S. cerevisiae bub3 mutant strain, at 50.0 µM, stronger effect = higher value
Compounds without any hit were thinned out: in the full panel of roughly 79,000, 15% have a hit.
The entries below come with measured growth inhibition values attached.
parameterMeasured: growth inhibition (%)

[[record]]
givensmiles = "COc1ccc(N=C2C(=Nc3ccc(OC)cc3)N(c3ccc(OC)cc3)C(=S)N2C)cc1"
observedvalue = -7.65

[[record]]
givensmiles = "CCCCNC(=O)/C=C\\C(=O)O"
observedvalue = -8.5

[[record]]
givensmiles = "O=C(OCCCl)OCCCl"
observedvalue = -5.3

[[record]]
givensmiles = "Fc1ccc(C(Nc2nncs2)Nc2nncs2)c(F)c1"
observedvalue = -35.8

[[record]]
givensmiles = "Nc1ccc(S(=O)(=O)O)cc1[N+](=O)[O-]"
observedvalue = 5.8

[[record]]
givensmiles = "CN(C)CCNc1ccc(NCCN(C)C)c2c1C(=O)c1ncsc1C2=O"
observedvalue = 2.1

[[record]]
givensmiles = "Cc1cccc(NC(=O)Nc2ccccc2)n1"
observedvalue = -18.9


----------
assayMethodText: NCI Yeast Anticancer Drug Screen. Data for the bub3 strain (AID 167)
assayConditions: S. cerevisiae bub3 mutant strain, at 50.0 µM, stronger effect = higher value
Compounds without any hit were thinned out: in the full panel of roughly 79,000, 15% have a hit.
parameterMeasured: growth inhibition (%)

[[record]]
compound = "Cc1cccc2c3c(ccc12)C(=O)OC3=O"
observedvalue = -6.5

[[record]]
compound = "CCCCN(CCCC)CCC(O)c1ccc(OC)c2ccccc12 (stereo not given)"
observedvalue = 16.4

[[record]]
compound = "CC(C(O)C(F)(F)F)[N+](C)(C)C (stereo not given)"
observedvalue = 10.1

[[record]]
compound = "CC1=NN(c2ccccc2C)C(=O)C1"
observedvalue = -27.9

[[record]]
compound = "C=C1CCC1"
observedvalue = 6.05

[[record]]
compound = "COC(=O)Cc1c(-c2[nH]c3ccccc3c2CC(=O)OC)[nH]c2ccccc12"
observedvalue = 3.85

[[record]]
compound = "CCOc1cccc(-c2ccccc2)c1"
observedvalue = 1.1

[[record]]
compound = "O=C(Nc1cccc2ccccc12)ON1C(=O)c2ccccc2C1=O"
observedvalue = -5.7

[[record]]
compound = "CC(=O)CCn1ncc(Cl)c(Cl)c1=O"
observedvalue = 1.15

[[record]]
compound = "CCCCc1[nH]nc(-c2n[nH]c(CCCC)c2C)c1C"
observedvalue = 18.6

[[record]]
compound = "CSCCC(NC(C)=O)C(C)=O (stereo not given)"
observedvalue = -7.15

[[record]]
compound = "CC(=O)c1cccc(N)c1"
observedvalue = -15.8

[[record]]
compound = "O=C1NNC2NC(=O)C3(NN2C1=O)c1ccccc1-c1ccccc13 (stereo not given)"
observedvalue = -11.7

[[record]]
compound = "CN(C)C(=O)c1cccc(C2CCCCC2)c1O"
observedvalue = -18.6

[[record]]
compound = "CNC1NC(=O)c2ccccc2N1Cc1ccc(F)cc1 (stereo not given)"
observedvalue = -12.1

[[record]]
compound = "O=C(O)CCCCCN1C(=O)c2cccc([N+](=O)[O-])c2C1=O"
observedvalue = 12.3

[[record]]
compound = "c1ccc2c(c1)ncc1cccn12"
observedvalue = 7.7

[[record]]
compound = "COc1ccc(CCN2CN=C(Sc3ccc([N+](=O)[O-])cc3Cl)NC2)cc1OC"
observedvalue = 21.9

[[record]]
compound = "O=C(O)CC1CC(=O)OC1(c1ccccc1)c1ccccc1 (stereo not given)"
observedvalue = 8.15

[[record]]
compound = "Cc1c(C)c2ccc(OC(C)C(=O)O)cc2oc1=O (stereo not given)"
observedvalue = 10.1

[[record]]
compound = "Cc1cc(NCCN(C)C)nc(Nc2ccc(Cl)cc2)n1"
observedvalue = 10.9

[[record]]
compound = "COc1ccc(-c2cc(C(=O)O)c3cccc(C)c3n2)cc1"
observedvalue = 23.8

[[record]]
compound = "CC(=O)[CH-]C(=O)c1ccccc1.CC(=O)[CH-]C(=O)c1ccccc1.CC[C@H](/C=C/C(C)[C@H]1CCC2[C@@H]3CC=C4C[C@@H]([O-])CC[C@]4(C)C3CC[C@@]21C)C(C)C.CC[O-].[Ti+4] (stereo not given in full)"
observedvalue = 5.3

[[record]]
compound = "CC(=O)OC1CCC2(C)C(=CCC3C2CCC2(C)C3CCC23OCCS3)C1 (stereo not given)"
observedvalue = -4.35

[[record]]
compound = "CC(CC(=O)O)C(C)(C#N)C(=O)O (stereo not given)"
observedvalue = 0.05


----------
assayMethodText: NCI Yeast Anticancer Drug Screen. Data for the bub3 strain (AID 167)
assayConditions: S. cerevisiae bub3 mutant strain, at 50.0 µM, stronger effect = higher value
About 79,000 compounds went through this panel and 15% of them were active in at least one assay; those are over-represented in the sample as a whole.
parameterMeasured: growth inhibition (%)

[[record]]
molecule = "CC1=NN2C(=O)C(C)SC2=NC(C)(C)C1 (stereo unspecified)"
parametermeasured = "growth inhibition"
observedvalue = -8.2

[[record]]
molecule = "CC(/C=N/N(C)C1=NCCCN1)=N/N(C)C1=NCCCN1"
parametermeasured = "growth inhibition"
observedvalue = -2.55

[[record]]
molecule = "Cc1ccc(-c2c(C#N)c(-c3ccc([N+](=O)[O-])cc3)c(C#N)c(=O)n2NS(=O)(=O)c2ccccc2)cc1"
parametermeasured = "growth inhibition"
observedvalue = 14.6

[[record]]
molecule = "COC(=O)C(Cc1ccc2c(c1)OCO2)(NC(=O)c1ccccc1)P(=O)(OC)OC (stereo unspecified)"
parametermeasured = "growth inhibition"
observedvalue = -25.1

[[record]]
molecule = "O=C(CCl)Nc1cc(Cl)c(Cl)cc1Cl"
parametermeasured = "growth inhibition"
observedvalue = 64.8

[[record]]
molecule = "CCOc1ccc(CO)cc1"
parametermeasured = "growth inhibition"
observedvalue = -8.95

[[record]]
molecule = "C/C(=N\\NC(=S)N(C)C)c1nc2ncccc2[nH]1"
parametermeasured = "growth inhibition"
observedvalue = 18.7

[[record]]
molecule = "COC(=O)CCc1cc(=O)oc2c3c(cc(OC)c12)OC1OC(=O)CC31 (stereo unspecified)"
parametermeasured = "growth inhibition"
observedvalue = -20.1

[[record]]
molecule = "CCCCCCCOC(=O)COc1ccc(Cl)cc1Cl"
parametermeasured = "growth inhibition"
observedvalue = 9.8

[[record]]
molecule = "C[N+]([O-])(Cc1ccccc1)c1ccccc1 (stereo unspecified)"
parametermeasured = "growth inhibition"
observedvalue = -26.8

[[record]]
molecule = "COC(=O)C([O][Ge]([CH3])([CH3])[CH3])c1ccccc1 (stereo unspecified)"
parametermeasured = "growth inhibition"
observedvalue = -12.9

[[record]]
molecule = "Fc1cccc(C2ON=C(c3ccccc3)N2C23CC4CC(CC(C4)C2)C3)c1 (stereo unspecified)"
parametermeasured = "growth inhibition"
observedvalue = -8.35

[[record]]
molecule = "CC1(C(=O)Sc2ccccc2)OC1(C)c1ccccc1 (stereo unspecified)"
parametermeasured = "growth inhibition"
observedvalue = 14.8

[[record]]
molecule = "C#CCN(CCCC)CCCC"
parametermeasured = "growth inhibition"
observedvalue = -39.9

[[record]]
molecule = "COC(=O)N/N=C(\\C)CC(=O)Nc1ccc(Cl)cc1"
parametermeasured = "growth inhibition"
observedvalue = -27.2

[[record]]
molecule = "CC1(C)C2CC[C@]3(C)C(C(=O)C=C4[C@@H]5C[C@@](C)(C(=O)O)CC[C@]5(C)CCC43C)[C@@]2(C)CC[C@@H]1OC1OC(C(=O)O)C(O)C(O)C1OC1OC(C(=O)O)C(O)C(O)C1O (stereo partly specified) (tested in a mixture with another compound)"
parametermeasured = "growth inhibition"
observedvalue = -3.55

[[record]]
molecule = "O=[N+]([O-])c1cc2c(cc1Br)C1C(C3C2C2(Cl)C(Cl)=C(Cl)C3(Cl)C2(Cl)Cl)C2(Cl)C(Cl)=C(Cl)C1(Cl)C2(Cl)Cl (stereo unspecified)"
parametermeasured = "growth inhibition"
observedvalue = 11.2

[[record]]
molecule = "OCC1(F)CC1(c1ccccc1)c1ccccc1 (stereo unspecified)"
parametermeasured = "growth inhibition"
observedvalue = -13.4

[[record]]
molecule = "CCN(CC)CCn1c2c3ccccc3ccc2c2oc(=O)c3ccccc3c21"
parametermeasured = "growth inhibition"
observedvalue = -7.5

[[record]]
molecule = "CCOC(=O)[C@H](Cc1ccccc1)NC(=O)c1nc[nH]c1[N+](=O)[O-]"
parametermeasured = "growth inhibition"
observedvalue = 1.2

[[record]]
molecule = "COc1cc(NCc2ccc3c(c2)OCO3)c([N+](=O)[O-])cc1OC"
parametermeasured = "growth inhibition"
observedvalue = 4.3

[[record]]
molecule = "Nc1cccnc1NCC(O)c1ccccc1 (stereo unspecified)"
parametermeasured = "growth inhibition"
observedvalue = -11.6

[[record]]
molecule = "CCCCC(=O)N/N=C/c1ccccc1OCC"
parametermeasured = "growth inhibition"
observedvalue = -9.9

[[record]]
molecule = "C#Cc1cccc(N=Cc2cc(Br)cc(OC)c2O)c1"
parametermeasured = "growth inhibition"
observedvalue = 5

[[record]]
molecule = "CN(C)CCCN=c1c2ccccc2n(C)c2[nH]c(=O)n(C)c(=O)c12"
parametermeasured = "growth inhibition"
observedvalue = 0.05

[[record]]
molecule = "O=C1Cn2c(c3c(nc2=O)CCCC3)N1"
parametermeasured = "growth inhibition"
observedvalue = -7.95

[[record]]
molecule = "CC(=O)/C=C\\C1CC2C=CC1C2 (stereo unspecified)"
parametermeasured = "growth inhibition"
observedvalue = -20.4

[[record]]
molecule = "O=C(O)CCCCCCCCC(=O)O"
parametermeasured = "growth inhibition"
observedvalue = -23.8

[[record]]
molecule = "O=C(Cc1ccccc1)OCC(=O)c1ccc(-c2ccccc2)cc1"
parametermeasured = "growth inhibition"
observedvalue = 19.1

[[record]]
molecule = "N=C(N)SCC(O)C(O)CSC(=N)N (stereo unspecified)"
parametermeasured = "growth inhibition"
observedvalue = -6.45

[[record]]
molecule = "COc1ccc(C2CC2c2ccc(C#N)cc2)cc1 (stereo unspecified)"
parametermeasured = "growth inhibition"
observedvalue = 6.25

[[record]]
molecule = "Cc1ccc(S(=O)(=O)N(C)c2cc(Cl)c(I)cc2Cl)cc1"
parametermeasured = "growth inhibition"
observedvalue = 25.1

[[record]]
molecule = "COc1cccc(/C=C/S(=O)(=O)Cc2ccccc2)c1OC"
parametermeasured = "growth inhibition"
observedvalue = 7.4

[[record]]
molecule = "COC1=CC(=O)c2ccccc2C1(CCC=C(C)C)C1=NC(C)(C)CO1 (stereo unspecified)"
parametermeasured = "growth inhibition"
observedvalue = -8.6

[[record]]
molecule = "CCCc1nc2ccccc2c(=O)n1/N=C/c1ccc(Cl)cc1Cl"
parametermeasured = "growth inhibition"
observedvalue = -3.45

[[record]]
molecule = "NCCCNC1CCCCC1"
parametermeasured = "growth inhibition"
observedvalue = 1.7

[[record]]
molecule = "CN(Cc1c(O)ccc2ccccc12)Cc1c[nH]c2ccccc12"
parametermeasured = "growth inhibition"
observedvalue = 6.9

[[record]]
molecule = "Cc1cccc(C(C)C)c1NC(=O)C(=O)C(C#N)c1ccc(CC#N)cc1 (stereo unspecified)"
parametermeasured = "growth inhibition"
observedvalue = 1.55

[[record]]
molecule = "COC1=CC(=O)[C@H]2[C@H](C)C(c3ccccc3)[C@@]2(C)C1=O (stereo partly specified)"
parametermeasured = "growth inhibition"
observedvalue = -0.05

[[record]]
molecule = "CC(C)NC(=O)/C=C/C(=O)O"
parametermeasured = "growth inhibition"
observedvalue = -11.2

[[record]]
molecule = "COC(=O)C(Cc1nc2ccccc2[nH]c1=O)C(=O)C(=O)Nc1ccc(OC)cc1[N+](=O)[O-] (stereo unspecified)"
parametermeasured = "growth inhibition"
observedvalue = -1.4

[[record]]
molecule = "O=c1[nH]c2c([N+](=O)[O-])cc(Cl)cc2nc1/C=C(\\O)c1ccncc1"
parametermeasured = "growth inhibition"
observedvalue = 18.3

[[record]]
molecule = "CC#CC#C/C=C1/C=CC2(CC=CO2)O1 (stereo unspecified)"
parametermeasured = "growth inhibition"
observedvalue = 25.3

[[record]]
molecule = "CCCCCCCCCC(=O)N/N=C/c1cccnc1"
parametermeasured = "growth inhibition"
observedvalue = 71.1

[[record]]
molecule = "COC(=O)CC(C)N(c1cccc(Cl)c1)S(=O)(=O)c1ccc(C)cc1 (stereo unspecified)"
parametermeasured = "growth inhibition"
observedvalue = 24.1

[[record]]
molecule = "C=CCOc1cc2c(cc1Cc1cc(OC)c(OC)c(OC)c1)OCO2"
parametermeasured = "growth inhibition"
observedvalue = 37.6


Hey, just so you know, these numbers are from PubChem BioAssay (NCI).
